These data points were gathered from patent US7605156B2.

# ASSAYED_TARGET: cPLA2 (Homo sapiens)
# Sequence (P47712 1-749): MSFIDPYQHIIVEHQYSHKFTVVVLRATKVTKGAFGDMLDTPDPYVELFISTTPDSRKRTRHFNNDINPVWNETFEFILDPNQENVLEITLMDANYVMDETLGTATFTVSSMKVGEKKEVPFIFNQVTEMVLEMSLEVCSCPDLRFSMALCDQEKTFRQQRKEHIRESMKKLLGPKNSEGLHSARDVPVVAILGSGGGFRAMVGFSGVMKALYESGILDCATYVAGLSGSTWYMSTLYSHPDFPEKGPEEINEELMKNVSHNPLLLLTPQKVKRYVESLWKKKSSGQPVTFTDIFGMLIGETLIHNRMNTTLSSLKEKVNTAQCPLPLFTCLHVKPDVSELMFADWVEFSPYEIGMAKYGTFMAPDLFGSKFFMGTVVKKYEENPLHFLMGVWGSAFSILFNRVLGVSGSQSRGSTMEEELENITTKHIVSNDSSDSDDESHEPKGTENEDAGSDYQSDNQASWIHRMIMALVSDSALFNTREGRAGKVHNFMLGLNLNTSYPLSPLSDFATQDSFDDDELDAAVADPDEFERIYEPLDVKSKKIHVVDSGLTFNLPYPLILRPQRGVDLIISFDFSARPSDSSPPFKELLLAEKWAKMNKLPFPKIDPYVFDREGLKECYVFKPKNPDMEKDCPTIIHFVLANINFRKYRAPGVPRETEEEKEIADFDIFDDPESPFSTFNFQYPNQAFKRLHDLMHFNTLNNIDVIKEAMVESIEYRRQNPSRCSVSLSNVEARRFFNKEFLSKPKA
OBSERVATION_TYPE: pIC50
Quick note: pIC50 values are minus log10 of concentrations in mol/L.

q: Read the entry Cc1cccc(C)c1S(=O)(=O)NCCc1c(CCCc2ccc(C(=O)O)cc2)c2cc(Cl)ccc2n1C(c1ccccc1)c1ccccc1 [Example 270] and write its reported pIC50.
a: 6.85

q: Read the entry O=C(O)c1ccc(OCCc2c(CCNS(=O)(=O)c3ccccc3OC(F)(F)F)n(C(c3ccccc3)c3ccccc3)c3ccc(Cl)cc23)cc1 [Example 231] and write its reported pIC50.
a: 6.60

q: Read the entry O=C(O)c1ccc(OCCc2c(CCNS(=O)(=O)CSc3ccc(F)c(Cl)c3)n(C(c3ccccc3)c3ccccc3)c3ccc(Cl)cc23)cc1 [Example 221] and write its reported pIC50.
a: 6.30

q: Read the entry O=C(O)c1ccc(OCCc2c(CCNS(=O)(=O)c3ccccc3OCc3ccccc3)n(C(c3ccccc3)c3ccccc3)c3ccc(Cl)cc23)cc1 [Example 184] and write its reported pIC50.
a: 6.46

q: Read the entry COc1ccccc1S(=O)(=O)NCCc1c(CCCc2ccc(C(=O)O)cc2)c2cc(Cl)ccc2n1C(c1ccccc1)c1ccccc1 [Example 234] and write its reported pIC50.
a: 6.64

q: Read the entry O=C(O)c1ccc(CCCc2c(CCNS(=O)(=O)c3c(Cl)cccc3Cl)n(C(c3ccccc3)c3ccccc3)c3ccc(Cl)cc23)cc1 [Example 153] and write its reported pIC50.
a: 6.80

q: Read the entry O=C(O)c1ccc(OCCc2c(CCNS(=O)(=O)Cc3ccccc3)n(C(c3ccccc3)c3ccccc3)c3ccc(N4CCOCC4)cc23)cc1 [Example 33] and write its reported pIC50.
a: 5.54

q: Read the entry O=C(O)c1ccc(CCCc2c(CCNS(=O)(=O)c3ccccc3[N+](=O)[O-])n(C(c3ccccc3)c3ccccc3)c3ccc(Cl)cc23)cc1 [Example 264] and write its reported pIC50.
a: 6.40

q: Read the entry CC(C)Oc1ccccc1S(=O)(=O)NCCc1c(CCOc2ccc(C(=O)O)cc2)c2cc(Cl)ccc2n1C(c1ccccc1)c1ccccc1 [Example 185] and write its reported pIC50.
a: 6.77

q: Read the entry O=C(O)c1ccc(CCCc2c(CCNS(=O)(=O)c3ccccc3OCc3ccccc3)n(C(c3ccccc3)c3ccccc3)c3ccc(Cl)cc23)cc1 [Example 187] and write its reported pIC50.
a: 6.70

q: Read the entry CS(=O)(=O)c1ccc(S(=O)(=O)NCCc2c(CCCc3ccc(C(=O)O)cc3)c3cc(Cl)ccc3n2C(c2ccccc2)c2ccccc2)cc1 [Example 202] and write its reported pIC50.
a: 6.52

q: Read the entry Cc1cc(C)c(S(=O)(=O)NCCc2c(CCOc3ccc(C(=O)O)cc3)c3cc(Cl)ccc3n2C(c2ccccc2)c2ccccc2)c(C)c1 [Example 266] and write its reported pIC50.
a: 6.80
